assay: Therapeutic index, ratio of IC50 for human H9 cells to EC50 for HIV1 3B; format: cell-based; conditions: read-out: Ratio IC50/EC50
observationType: selectivity ratio

* Cc1cc2c(c3oc(=O)cc(O)c13)[C@@H](OC(=O)C13CCC(C)(C(=O)O1)C3(C)C)[C@@H](OC(=O)C13CCC(C)(C(=O)O1)C3(C)C)C(C)(C)O2 (some centres not stated) | 12
* Cc1c(O)c2ccc3c(c2oc1=O)[C@@H](OC(=O)C12CCC(C)(C(=O)O1)C2(C)C)[C@@H](OC(=O)C12CCC(C)(C(=O)O1)C2(C)C)C(C)(C)O3 (some centres not stated) | 15
* Cc1cn([C@H]2C[C@H](N=[N+]=[N-])[C@@H](CO)O2)c(=O)[nH]c1=O [ZIDOVUDINE] | 38000

###

tested on: Liver microsomes; test: Intrinsic clearance in human liver microsomes at 1 uM; assay type: ADME, Microsome
Listing of entries alongside the reported clearance.
observationType: clearance (mL/min/kg)

- Cc1cc(=O)oc2c3c(c(O)cc12)OC(C)(C)[C@H](OC(=O)C12CCC(C)(C(=O)O1)C2(C)C)[C@@H]3OC(=O)C12CCC(C)(C(=O)O1)C2(C)C (some centres undefined): 2300
- Cc1cc(=O)oc2c3c(ccc12)NC(C)(C)[C@H](OC(=O)C12CCC(C)(C(=O)O1)C2(C)C)[C@@H]3OC(=O)C12CCC(C)(C(=O)O1)C2(C)C (some centres undefined): 700
- Cc1cc(=O)oc2c3c(ccc12)OC(C)(C)[C@H](OC(=O)C12CCC(C)(C(=O)O1)C2(C)C)[C@@H]3OC(=O)C12CCC(C)(C(=O)O1)C2(C)C (some centres undefined): 2000
- Cc1c(O)c2ccc3c(c2oc1=O)[C@@H](OC(=O)C12CCC(C)(C(=O)O1)C2(C)C)[C@@H](OC(=O)C12CCC(C)(C(=O)O1)C2(C)C)C(C)(C)O3 (some centres undefined): 2000

###

The compounds listed here are annotated with their selectivity ratio.
assay: Therapeutic index, ratio of IC50 for human H9 cells to EC50 for HIV1 3B; type: cell-based; conditions: read-out: Ratio IC50/EC50
observationType: selectivity ratio

* CC1(C)Oc2ccc3c(O)cc(=O)oc3c2[C@@H](OC(=O)C23CCC(C)(C(=O)O2)C3(C)C)[C@H]1OC(=O)C12CCC(C)(C(=O)O1)C2(C)C (some centres undefined) | > 3
* Cc1cc(=O)oc2c3c(c(O)cc12)OC(C)(C)[C@H](OC(=O)C12CCC(C)(C(=O)O1)C2(C)C)[C@@H]3OC(=O)C12CCC(C)(C(=O)O1)C2(C)C (some centres undefined) | > 25
* Cc1cc(=O)oc2c3c(ccc12)OC(C)(C)[C@H](OC(=O)C12CCC(C)(C(=O)O1)C2(C)C)[C@@H]3OC(=O)C12CCC(C)(C(=O)O1)C2(C)C (some centres undefined) | > 500
* Cc1cc(=O)oc2c3c(ccc12)NC(C)(C)[C@H](OC(=O)C12CCC(C)(C(=O)O1)C2(C)C)[C@@H]3OC(=O)C12CCC(C)(C(=O)O1)C2(C)C (some centres undefined) | > 42
